assay-target: T1, Oct6 DNA-binding domain (BD-Oct6) (Mus musculus (B6), UniProt P21952 317-416)
T1 sequence: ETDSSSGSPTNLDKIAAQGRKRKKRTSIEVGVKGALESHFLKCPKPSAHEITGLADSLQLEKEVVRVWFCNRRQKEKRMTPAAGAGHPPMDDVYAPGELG
measurement-description: EMSA; 10% glycerol, 20 mM HEPES pH 7.8, 45 mM KCl, 10 mM NaCl, 1 mM EDTA, 1 mM DTT, 0.2 ug/uL BSA, 0.1% NP-40, 50 ng poly-dIdC; 20 ng each GST protein; room temperature 30 min (heterodimers 4 C); 6% PAGE 0.25x TBE
protocol-conditions: protein: recombinant; tags: GST (N-terminal, pGEX-6P-1); label: 32P-dCTP fill-in of the 5' (dG)5 overhangs of both strands (Methods; control probes are given with GGG)
assay-readout: binding result

// below: answered binders
[[record]]
binder = "20 (dsDNA) DNA 1: GGGGGCTCAGAGCTAGAAATATTTGTGGAATGGGCCCCC DNA 2: GGGGGCCCATTCCACAAATATTTCTAGCTCTGAGCCCCC"
result = "no binding"

[[record]]
binder = "19 (dsDNA) DNA 1: GGGGGGAAGGAAAATTGTTCCCTGACATTTTTGAACTGGGCCCCC DNA 2: GGGGGCCCAGTTCAAAAATGTCAGGGAACAATTTTCCTTCCCCCC"
result = "no binding"

[[record]]
binder = "85 (dsDNA) DNA 1: GGGGGACATATGCAATTGTTTCCTGTATTATAGTAGAGATCCCCC DNA 2: GGGGGATCTCTACTATAATACAGGAAACAATTGCATATGTCCCCC"
result = "no binding"

[[record]]
binder = "119 (dsDNA) DNA 1: GGGGGCCGATCGCTTTGTTCTACATTTTATGTTCTATCCCCC DNA 2: GGGGGATAGAACATAAAATGTAGAACAAAGCGATCGGCCCCC"
result = "no binding"

[[record]]
binder = "38 (dsDNA) DNA 1: GGGGGAGGTTTTGATGATTATGAACAAAGCTTCTGTCCCCC DNA 2: GGGGGACAGAAGCTTTGTTCATAATCATCAAAACCTCCCCC"
result = "binds"


Fill in the blank: the reported binding result of 64 (dsDNA) DNA 1: GGGGGATATATGCACAAACACTCATTTACATAAAATAACCCCC DNA 2: GGGGGTTATTTTATGTAAATGAGTGTTTGTGCATATATCCCCC is ____.
binds

Fill in the blank: the reported binding result of 2 (dsDNA) DNA 1: GGGGGGCCATAGAATTGTACTTCTGTCACCAGTTTTATTTTTTTATTTCCCCC DNA 2: GGGGGAAATAAAAAAATAAAACTGGTGACAGAAGTACAATTCTATGGCCCCCC is ____.
no binding

Fill in the blank: the reported binding result of 56 (dsDNA) DNA 1: GGGGGACACTTATACAATAATAGTATTTATTAATAGTATCCCCC DNA 2: GGGGGATACTATTAATAAATACTATTATTGTATAAGTGTCCCCC is ____.
binds

Fill in the blank: the reported binding result of 110 (dsDNA) DNA 1: GGGGGTTTATTTATTTGTTTTATTTCTATTTTTCTTGGTGACCCCC DNA 2: GGGGGTCACCAAGAAAAATAGAAATAAAACAAATAAATAAACCCCC is ____.
binds
